Reported shrunken log2 fold change is given for each of the following sequences.
System: Escherichia coli TOP10
Test protocol: shrunken log2 fold change of peptide-encoding DNA abundance (4.5 h post-induction vs induction); higher = less antimicrobial activity (less host growth inhibition)
Condition parameters: time post-induction: 4.5 h; library: site-saturation at positions 5, 18, 19, 20
Provide a numeric answer; units are not to be included.

// known answers, use as guide
Tell me its shrunken log2 fold change given RRIRVRPPRLPRPRPRPHMDPRP as the entry.
-0.449

Tell me its shrunken log2 fold change given RRIRARPPRLPRPRPRPIPTPRP as the entry.
-0.0942

Continuing:
Tell me its shrunken log2 fold change given RRIRFRPPRLPRPRPRPPQIPRP as the entry.
0.241

Tell me its shrunken log2 fold change given RRIRTRPPRLPRPRPRPIWEPRP as the entry.
-0.178

Tell me its shrunken log2 fold change given RRIRFRPPRLPRPRPRPVHQPRP as the entry.
0.124

Tell me its shrunken log2 fold change given RRIRYRPPRLPRPRPRPDGRPRP as the entry.
-0.154

Tell me its shrunken log2 fold change given RRIRDRPPRLPRPRPRPTNQPRP as the entry.
-0.00895

Tell me its shrunken log2 fold change given RRIRWRPPRLPRPRPRPHREPRP as the entry.
-0.0345

====

Test system: Escherichia coli TOP10
Test protocol: shrunken log2 fold change of peptide-encoding DNA abundance (4.5 h post-induction vs induction); higher = less antimicrobial activity (less host growth inhibition)
Condition parameters: time post-induction: 4.5 h; library: site-saturation at positions 5, 18, 19, 20
Reported shrunken log2 fold change is given for each of the following sequences.
Provide a numeric answer; units are not to be included.

// known answers, use as guide
Tell me its shrunken log2 fold change given RRIRCRPPRLPRPRPRPSNMPRP as the entry.
-0.604

Tell me its shrunken log2 fold change given RRIRLRPPRLPRPRPRPIRHPRP as the entry.
-0.144

Tell me its shrunken log2 fold change given RRIRFRPPRLPRPRPRPMAVPRP as the entry.
-0.0113

Continue with the next sequence.
Tell me its shrunken log2 fold change given RRIRYRPPRLPRPRPRPMPHPRP as the entry.
-0.202

====

System: Escherichia coli TOP10;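 note: peptides expressed intracellularly from a pBAD plasmid library in pooled LB shake-flask culture, induced with 0.3% L-arabinose, DNA abundance read by NGS, three biological replicates, DESeq2 with apeglm shrinkage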
Test protocol: shrunken log2 fold change of peptide-encoding DNA abundance (4.5 h post-induction vs induction); higher = less antimicrobial activity (less host growth inhibition)
Condition parameters: time post-induction: 4.5 h; library: site-saturation at positions 5, 18, 19, 20
Is shrunken log2 fold change at least -0.06? Then 1. If not, -1.

Does the reported shrunken log2 fold change for RRIRNRPPRLPRPRPRPDILPRP fall at or above the -0.06 mark?
-1

Does the reported shrunken log2 fold change for RRIRNRPPRLPRPRPRPQPKPRP fall at or above the -0.06 mark?
1

Does the reported shrunken log2 fold change for RRIRCRPPRLPRPRPRPCHDPRP fall at or above the -0.06 mark?
-1

Does the reported shrunken log2 fold change for RRIRQRPPRLPRPRPRPSVQPRP fall at or above the -0.06 mark?
-1

Does the reported shrunken log2 fold change for RRIRMRPPRLPRPRPRPAWDPRP fall at or above the -0.06 mark?
1

Continuing:
Does the reported shrunken log2 fold change for RRIRPRPPRLPRPRPRPPIKPRP fall at or above the -0.06 mark?
1

Does the reported shrunken log2 fold change for RRIRPRPPRLPRPRPRPCKFPRP fall at or above the -0.06 mark?
1

Does the reported shrunken log2 fold change for RRIRYRPPRLPRPRPRPKQHPRP fall at or above the -0.06 mark?
-1

Does the reported shrunken log2 fold change for RRIRARPPRLPRPRPRPFHIPRP fall at or above the -0.06 mark?
-1

Does the reported shrunken log2 fold change for RRIRWRPPRLPRPRPRPLYWPRP fall at or above the -0.06 mark?
-1

Does the reported shrunken log2 fold change for RRIRLRPPRLPRPRPRPVFLPRP fall at or above the -0.06 mark?
-1

Does the reported shrunken log2 fold change for RRIRTRPPRLPRPRPRPVCNPRP fall at or above the -0.06 mark?
-1

Does the reported shrunken log2 fold change for RRIRRRPPRLPRPRPRPCGIPRP fall at or above the -0.06 mark?
1

Does the reported shrunken log2 fold change for RRIRGRPPRLPRPRPRPPDYPRP fall at or above the -0.06 mark?
1
